# test_method_notes: gradient 5% acetonitrile 3 min, to 50% in 2 min, to 85% in 15 min, held 3 min, 100 µL/min
# stated_conditions: column: Zorbax Extend-C18 2.1 x 50 mm; eluents: water / acetonitrile, 0.1% formic acid
We use 800 s as the dividing line for RP-LC retention time: on or above the line is Fulfilled, below is Not fulfilled.

compound: CCc1nnc(-c2ccc3ccn(CC(=O)NCc4ccc(N(C)C)cc4)c3c2)o1
label: Not fulfilled
//
compound: COc1ccc(-c2c(C(=O)Nc3ccc(OC)cc3OC)nc3ccccn23)cc1
label: Not fulfilled
//
compound: CC(C)c1noc(-c2ccn3c(CC(=O)NC4CCCCC4)nnc3c2)n1
label: Not fulfilled
//
compound: Cc1ccc(C2Cn3nnc(-c4nc(-c5ccccc5Cl)no4)c3CO2)c(C)c1 (centres undefined)
label: Fulfilled
//
compound: CC(C)(C)NC(=O)Cn1ccn2nc(-c3ccc(F)cc3)c(CO)c2c1=O
label: Not fulfilled
//
compound: COC(=O)c1cc(C(=O)OC)cc(-n2ccc3nc(C)c(C(=O)OC)cc3c2=O)c1
label: Fulfilled
//
compound: O=C(O)c1nnn(-c2ccc3c(c2)OCCO3)c1-c1ccncc1
label: Not fulfilled
//
compound: CC(C)(C)c1ccc(C(=O)N2CCN(c3nc(CN4CCOCC4)cs3)CC2)cc1
label: Not fulfilled
//
compound: COc1ccc(-c2noc(-c3ncn4c3COC(c3ccc(F)cc3)C4)n2)c(OC)c1 (centres undefined)
label: Fulfilled
//
compound: Cc1nc(-c2cc(S(=O)(=O)N3CCC(C(=O)NCc4cccs4)CC3)c(C)s2)no1
label: Fulfilled
//
compound: OC(CN1CCN(c2ccccn2)CC1)c1ccc2c(c1)OCO2 (centres undefined)
label: Not fulfilled
//
compound: C=CCN1C(=O)COc2ccc(-c3csc(NC(=O)CCC)n3)cc21
label: Fulfilled
//
compound: COC(=O)CN1CN(c2ccccc2)C2(CCN(Cc3cccc4ccccc34)CC2)C1=O
label: Not fulfilled
//
compound: COc1cccc(C(=O)N2C[C@@H]3C[C@H](NC(=O)c4cccnc4)[C@H]2C3)c1OC
label: Not fulfilled
//
compound: COCCCn1c(=O)c2ccccc2n(Cc2nc(-c3cccc(C)c3)no2)c1=O
label: Fulfilled
//
compound: CCCC(CCC)C(=O)N1CCCN(C2=NS(=O)(=O)C(c3ccc(F)cc3)=C2C)CC1
label: Fulfilled
//
compound: O=C(Cn1c(=O)c(=O)n(Cc2ccncc2)c2ncccc21)NC1CCCCCCC1
label: Not fulfilled
//
compound: CC(C)CCNC(=O)Cn1c(=O)c(S(=O)(=O)c2ccccc2)cc2ccccc21
label: Fulfilled
//
compound: CCOc1cccc(-c2noc(Cn3ccnc3CC)n2)c1
label: Not fulfilled

src = the METLIN SMRT retention time set (Domingo-Almenara et al. 2019)
